This listing pairs compounds with measured inhibition.
Molecular target: Solute carrier family 2, facilitated glucose transporter member 1 (Homo sapiens)
Experiment: ST_JUDE_LEISH: Cytotoxicity at 2uM final concentration against transgenic Leishmania Mexicana promastigotes LmGLUT1 that are glucose transport deficient and complemented with the human glucose transporter GLUT1. Activity is measured by DNA content using SYBR green in vitro
Type: functional
parameter.measured: inhibition (%)

# compound, assay.target, parameter.measured, recorded.measurement
records = [
    ("COc1cccc2cc(C(=O)N[C@@H](CC(C)C)C(=O)N[C@H](/C=N/NC(=O)OC(C)(C)C)CC(=O)OC(C)(C)C)oc12", "Solute carrier family 2, facilitated glucose transporter member 1 (Homo sapiens)", "inhibition", 4.66),
    ("COc1cc(NC(=O)Nc2cccc3ccccc23)c(OC)cc1Cl", "Solute carrier family 2, facilitated glucose transporter member 1 (Homo sapiens)", "inhibition", 5.02),
    ("O=C(O)C1CC(=O)N(c2ccc(Cl)cc2)C1 (stereo not given)", "Solute carrier family 2, facilitated glucose transporter member 1 (Homo sapiens)", "inhibition", -1.68),
    ("COc1cc(Cc2cnc(N)nc2N)ccc1OCc1ccc(NC(C)=O)cc1", "Solute carrier family 2, facilitated glucose transporter member 1 (Homo sapiens)", "inhibition", 1.71),
    ("C[C@@H](CC1CCCCC1)OC(=O)N(C)[C@H]1CCN(C#N)C1", "Solute carrier family 2, facilitated glucose transporter member 1 (Homo sapiens)", "inhibition", 14),
    ("Cc1ccc(C)c(Cn2ccc3nc(N)nc(N)c32)c1", "Solute carrier family 2, facilitated glucose transporter member 1 (Homo sapiens)", "inhibition", 2.05),
    ("O=C(/C=C/c1ccc(Cl)c(Cl)c1)NCCCCCN1CCCN(C(=S)Nc2ccc(Cl)cc2)CC1", "Solute carrier family 2, facilitated glucose transporter member 1 (Homo sapiens)", "inhibition", 1.38),
    ("COc1cc2nc(NCCc3ccccc3)nc(N(C)Cc3ccccc3)c2cc1OC", "Solute carrier family 2, facilitated glucose transporter member 1 (Homo sapiens)", "inhibition", 5.11),
    ("CC1CC(NCCCNc2cc(=O)c3ccccc3[nH]2)c2c1cc(Cl)c(Cl)c2Cl (stereo not given)", "Solute carrier family 2, facilitated glucose transporter member 1 (Homo sapiens)", "inhibition", -1.8),
    ("Cc1ccc(Cn2ncc(N3CCCNCC3)c(Cl)c2=O)cc1NC(=O)Nc1ccc(-c2ccccc2)cc1", "Solute carrier family 2, facilitated glucose transporter member 1 (Homo sapiens)", "inhibition", 3.82),
]

====

Target: Solute carrier family 2, facilitated glucose transporter member 1 (Homo sapiens) (UniProt P11166)
Sequence (P11166 whole entry): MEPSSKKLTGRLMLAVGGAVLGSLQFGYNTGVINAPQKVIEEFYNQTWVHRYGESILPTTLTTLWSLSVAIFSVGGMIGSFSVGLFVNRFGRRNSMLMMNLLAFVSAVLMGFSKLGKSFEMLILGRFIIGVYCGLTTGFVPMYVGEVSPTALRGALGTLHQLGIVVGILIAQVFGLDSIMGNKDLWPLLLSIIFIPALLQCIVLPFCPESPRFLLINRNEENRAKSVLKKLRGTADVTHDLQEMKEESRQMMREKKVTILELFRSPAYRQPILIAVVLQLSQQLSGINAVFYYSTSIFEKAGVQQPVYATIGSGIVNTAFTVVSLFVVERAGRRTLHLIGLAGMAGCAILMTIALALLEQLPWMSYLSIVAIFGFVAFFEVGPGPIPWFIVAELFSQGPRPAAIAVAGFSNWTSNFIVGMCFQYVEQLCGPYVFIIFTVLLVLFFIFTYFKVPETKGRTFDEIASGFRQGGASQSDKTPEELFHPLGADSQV
Assay: ST_JUDE_LEISH: Cytotoxicity at 2uM final concentration against transgenic Leishmania Mexicana promastigotes LmGLUT1 that are glucose transport deficient and complemented with the human glucose transporter GLUT1. Activity is measured by DNA content using SYBR green in vitro
Assay type: functional
This listing pairs compounds with measured inhibition.
parameter.measured: inhibition (%)

# compound, parameter.measured, recorded.measurement
data = [
    ("Cc1c(CNCCCNc2nc3ccccc3[nH]2)sc(C(F)F)c1Br", "inhibition", 3.07),
    ("CN(Cc1cccc(O)c1)C1CCCN(c2cc(NC(=O)c3ccc(F)cc3)ccn2)C1 (centres undefined)", "inhibition", 3.85),
    ("CCOc1ccc2c(=NN=Cc3cccc(F)c3)cc(C)[nH]c2c1", "inhibition", 6),
    ("COc1cccc(C(=O)C2CC2CN(C)CC(O)c2cc(C)c(OC)cc2C)c1 (centres undefined)", "inhibition", 1.05),
    ("CCC(C)CC(=O)Nc1ccc(OC)c(S(=O)(=O)N[C@@H]2CCN(C#N)C2)c1 (some centres undefined)", "inhibition", -0.28),
    ("COc1cc2nc(N3CCC(CNC(=O)c4ccc(NC(=O)c5ccc(Cl)cc5)cc4)CC3)nc(N)c2cc1OC", "inhibition", 0.04),
    ("Cc1cccc2nc(-c3cccc(-c4cccc(CNCCNC(=O)c5ccnn5C)c4)c3)[nH]c12", "inhibition", -1.89),
    ("Cc1nc2nc(N)nc(N)c2c(C)c1Cc1ccc([N+](=O)[O-])cc1", "inhibition", 5.73),
    ("O=C(Nc1ccc(-c2nc3ccccc3[nH]2)cc1)c1ccc(S(=O)(=O)N2CCc3ccccc32)cc1", "inhibition", 2.92),
]
